Experiment: yeast display, Sf9 membrane polyspecificity reagent, FACS + sequencing; frameworks hold sequencing errors

sequence code	polyreactivity (PSR sort gate)
QVQLVESGGGLVQAGGSLRLSCAASGRTFPYYAMGWYRQAPGKERELVAAISSSGGGTYYADSVKGRFTISRDNAKNTVYLQMNSLKPEDTAVYYCNAVSYYQDSFYYWGQGTQVTVSS	high polyreactivity
QVHLVESGGGLVQAGGSLRLSCAASGYTFDSYAMGWYRQAPGKERELVAAISSGGRTKYADSVKGRFTISRDNAKNTVYLQMNSLKPEDTAFYYCAARRTFGVGILVGYWGQGTQVTVSS	high polyreactivity
QVQLVESGGGLVQAGGSLRLSCAASGRIFFYNAMGWYRQAPGKERELVATINWSGGSTYYADSVKGRFTISRDYAKNTVYLQMNSLKPEDTAVYYCNALRASTTALWGGYWGQGTQVTVSS	high polyreactivity
QVQLVESGGGLVQAGGSLRLSCAASGLTFGGSAMGWYRQAPGKERELVAGISSSGNTNYADSVKGRFTISRDNAKNTVYLQMISLKPEDTAVYYCAADENITYPVYDMYYWGQGTQVTVSS	low polyreactivity
QVQLVESGGGLVQAGGSLRLSCAASGITFGSKVMGWYRQPPGKEWEFVAVINWSTGSTYYADSVKGRFTISRDNAKNTVYLQMNSLKPEDTAVYYCNTDSGNEWTSYDYWGQGTQVTVSS	low polyreactivity

----------
Experiment: yeast display, Sf9 membrane polyspecificity reagent, FACS + sequencing; frameworks hold sequencing errors
measured endpoint: polyreactivity (PSR sort gate)

sequence code	result
QVQLGESGVGLVQAGGSLRLSCASSGRTLPVNAMGWYRQAPGKERELVAGISWGGDSTYYADSVKGRFTISRDNAKNSVYLQMNSLKPEDTAVYYCAASSSTWPGDFWGQGTQVTVSS	low polyreactivity
QVQLVESGGGLVQAGGSLRLSCAASGLIFENNAMGWYRQAPGKERELVAAITKGGGSTYYADSVKGRFTISRDNAKNTVYLQMNSLKPVDTAVYYCAKDHPWHRYWQYWYDYWGLGTQVTVSS	low polyreactivity
QVQLVESGGGLVQAGGSLRLSCAASGRIFSANAMGWYRQAPGKERELVAAITRGDNTYYADSVKGRFTISRDNAKNTVYLQMNSLKPEDTAVYYCATEGYQIQYEHDYWGQGTQLTVSS	low polyreactivity
QVQLVESGGGLVQAGGSLRLSCAASGFIFFRYDMGWYRQAPGKERELVAVITSSGSTNYADSVKGRFTISRDNAKNTVYLQMNSLKPEDTAVYYCNARVSGVYRRRVNYWGEGTQVTVSS	high polyreactivity
QVQLVESGGGLVQAGGSLRFSCAASGFTFASNAMGWYRQAPGQERELVAAITSGGRTYYADSVKGRFTISRDNAKNTVYLQMNSLKPEDTAVYYCAKPNGALKRYYYWGQGTQVTVSS	high polyreactivity

----------
Experiment: yeast display, Sf9 membrane polyspecificity reagent, FACS + sequencing; frameworks hold sequencing errors

sequence code	polyreactivity (PSR sort gate)
QVQIVESGGGLVQAGGSLRLSCAASGSTYDHYTLGWYRQAPGKERELVAAINRIADSTYYADSVKGRFTNSRDNQKNTVYVQMTSLNPEDTAVYYCAARQFVYSSRIILYDYWGHGTQVTVSS	high polyreactivity
QVQLVESGGGLVQAGGSLRLSCAAYGITLYKYAMGWYRQAPGKERELVASISRSGGSTYYADSVKGRFTISRDNAKNTVYLEMNSLKPEDTAVYYCAKAVWWSRPAQKSYLYYYWGHGTQVTVSS	high polyreactivity
QVQLVESGGGLVQAGGSLRLSCAASGRTFVTNAMGWYRQAPGKERELVAAISKSGGRTYYADSVKGRFTISRDNAKNTVYLQMNRLKPEDTAVYYCAADKRYLSYDYWGQGTQVTVSS	high polyreactivity

----------
Assay: yeast display, Sf9 membrane polyspecificity reagent, FACS + sequencing; frameworks hold sequencing errors

sequence code	polyreactivity (PSR sort gate)
QVQLVESGGGLVQAGGSLRLSCAASGFTLFQNAMGWYRQAPGKERELVAAISTGGSTYYADSVKGRFTISRDNAKNTVYLQMNSLKPEDTAVYYCAAVWPYRGSRKYYSWGQGTQVTVSS	high polyreactivity
QVQLVESGGGLVQAGGSLRLSCAASGSTSLFYAMGWYRQAPGKERELVAGITNTARTYADSVKGRFTISRDNAKNTVYLQMKSLKPEDTAVYYCATGYNRWRPTFPFYYWGLGTQVTVSS	high polyreactivity
QVQLVESGGGLVQAGGSLRLSCAASGSIFSYYAMGWYRQAPGKERELVAAISRGGYTYYADSVKGRFTISRDNAKNTVYLQMNSLKPEDTAVYYCAAAPYYVTLVTRRDYWGQGTQVTVSS	high polyreactivity
QVQLVESGGGLDQAGGSLRLSCAASGIIPYYYVMGWYRQAPGKERELVAAINRSGTSTYYADSVKGRFTISRDNAKNTVYLQMNSLKPEDTAVYYCAAERYWSGGVFDYDYWGQGTQVTVSS	high polyreactivity
QVQLVESGGGLVQAGGSLRLSCAASGSIFPPYAMGWYRQAPGKERELVAAIDWGGSSTYYADSVKGRFTISRDNAKNTVYLQMNSLKPEDTAVYYCAAEVVHGYYLYEYWGQGTQVTVSS	high polyreactivity
QVQLVESGGGLVQAGGSLSLSCAASGRIINWYAMGWYRQATGKERELVARISSGDITSYADSVKGRFTISRDNAKNTVYLQMYSLKPEDTAVSYCAARQWFLYDYWGQGTQVTVSS	low polyreactivity
QVQLVESGGGLVQAGGSLRLSCAASGSTFVTNAMGWYRQAPGKERELVAAITSGAGTYYADSVKGRFTISRDNAKNTVYLQMNSLKPEDTAVYYCAARRYYSRGRYRFGYWGQGTQVTVSS	high polyreactivity
QVQLVESGGGLVQAGGSLRLSCAASGSIFQPNGMGWYRQAPGQEREFVARIDRSGGSTYYADSVKGRFTISRDNAKNTVYLQMNSLKPEDTAVYYCHAAGEVIGYDYWGQGTQVTVSS	low polyreactivity
QVQLVESGGGLVQAGGSLRLSCAASGFIIFDYAMGWYRQAPGKESELVAAITSGGSTDYADSVKGRFTLSRDNAKNTVYLQMNSLKPEDTAVYYCAAVYGSVSRYDYWGQGTQVTVSA	low polyreactivity
QDQLVESGGGLVQAGGSLRLSCAASGSTFGNYAMGWYRQAPGKERELVAAITSGGTTNYADSVKGRFTISRDNAKNTVYLQMNSLKPEDTAVYYCNAVGTFVRYSTDGRDGVTYDYWGHGTQVTVSS	low polyreactivity
QVQLVESGGGLVQAGGSLRLSCGASGFTFDVYAMGWYRQAPGKERELVARIRWSGGSTSYADSVKGRFTISRDNAKNTVYVQMNSLKPEDTAVYYCNTRRIYVNSGRGDYWGQGTKVTVSS	low polyreactivity
QVQLVESGGGLVQAGGSLRLSCAASGSTFYPYVMGWYRQAPGKERELVAGISYRGGITYYADSVKGRFTISRDYAKNTVYLQMNSLKPEDTAVYYCAADYWSVYLARKMDYWGQGTQVTVSS	low polyreactivity
QVQLVESGGGLVQAGGSLRLSCAASGFTFIHYGMGWYRQAPGKERELVAAISSRGGRTYYADSVKGRFTISRDNAKNTVYLQMNSLKPEDTAVYYCNRDYAVISYGEYDSWGQGTQVTVSS	high polyreactivity
QVQLLESGGGLVQAVGSLRLSCAASGIIFWVNAMGWYRQAPGKERELFAAIRSDGSTKYADSVKGRFTISRDNAKNTVYLLMNSLKPEDTAHYYCAKRDYSYTWLRDYYYWGQGTQVTVSS	low polyreactivity
QFQLVESGGGLVQAGGSLRLSCAASGRIFRSNAMVWYRQAPGKERELVAAISWSGGSTYYADSVKGRFTISRDNAKNTVYLQMNSLKPEDTAVFYCAARYRGSRYDYWGQGTQVTVSS	high polyreactivity
QDQHVESGGGLVQAGGSLRLSCAASGSIFPWYTMGWYRQAPGKERELVASITKSGARTYYADSVKGRFTISRDNAKNTVYLEITSLKPEDTAVYYCAASLWQRAKVRYQYWGQGPQVTVSS	high polyreactivity
QVQLVESGGGLVQAGGSLRLSCAASASTFGSYAMGWYRQAPGKERELVAAISRAGSTYADSVKGRFTISRDNAKNTVYLQMNSLKTEDTAVYYCAKRDYALYYGYDYWGQGTQVTVSS	low polyreactivity
QVQLVESGGGLVQAGGSLRLSCAASGSIYSNAMGWYRQAPGKERELVAAISRTGGSTYYADSVKGLFTISRDNAKITVYLQMNSLKPEDTAVYYCAVSAWTRSHALYYWGQGTQVTVSS	high polyreactivity
QVQLVESGGGLVQAGGSLRLSCADSGLIFWAYAMGWYRQEPGTERELVAAINWRGGSTYYADSVKGRFTISRDTAKNTVYLQMNSLKPEDTAVYYCAADSYYDEYDYWGQGTQVTVSS	low polyreactivity
QVQLVESGGGLVQAGGSLRLSCAASGITFRLYAMGWNRQAPGKERELVAAITGSGGRTYYADSVKGRFTISRDNAKNTVYLHMNSLKPEDTAVYYCAADWRHLRYRGGLKYDYWGQGTQVTFSS	high polyreactivity
QVQLVESGGGLVQAGGSLRLSCAASGSTFRRYAMGWYRQAPGKERELVASITYRGGSTYYADSVKGRFTISRDNAKNTVYLQMNSLKPEDTAVYYCAKKGVYGPLNEYWGQGTQVTVSS	high polyreactivity

Reference source for all entries: the nanobody polyreactivity screen of Harvey et al. (2022)
